B1: library; a variant is named by its letters at N, in order (parent)
chain: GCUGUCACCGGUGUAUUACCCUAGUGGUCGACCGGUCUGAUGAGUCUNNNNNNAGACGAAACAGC

- Variants of: B1
- Assay Remarks: normalized RNA/DNA level without ligand (relative to sTRSVctl = 100) (log10 (% of sTRSVctl)); ligand: hypoxanthine (xanthine aptamer); higher = less ribozyme self-cleavage, higher mRNA level
- Condition Label: HEK293T, reporter: mCherry (pCS4076), ligand present: no
Catalogue of normalized RNA/DNA level without ligand (log10) values
Give the value as a plain number.

{"Variant Identifier": "UCCCGG", "Observed Value": 1.67}
{"Variant Identifier": "GAGUGG", "Observed Value": 1.13}
{"Variant Identifier": "AGACCG", "Observed Value": 1.75}
{"Variant Identifier": "UGCAGC", "Observed Value": 1.83}
{"Variant Identifier": "GAGCCU", "Observed Value": 1.94}
{"Variant Identifier": "GCGGCA", "Observed Value": 1.7}
{"Variant Identifier": "AAACGC", "Observed Value": 1.68}
{"Variant Identifier": "CGGGAA", "Observed Value": 1.53}
{"Variant Identifier": "AGUCAG", "Observed Value": 1.64}
{"Variant Identifier": "AAUCGC", "Observed Value": 1.82}

q: Indicate its recorded normalized RNA/DNA level without ligand (log10); the variant in question is UCAUUC
a: 1.99
